test: Inhibitory activity was determined against almonds Beta-glucosidase
Answer each item with its documented IC50.

Q: # lookup: IC50 of OCC1(O)C(O)C(O)C2N=C(Nc3ccccc3)OC21 (configuration not stated)
A: > 300 µM

Q: Consider the compound OCC1C(O)C(O)C2OC(Nc3ccccc3)=NC12 (configuration not stated) and give its measured IC50.
A: > 300 µM

Source of measurements: BindingDB's records for doi:10.1016/S0960-894X(01)80688-0
